Biological target: bovine trypsin (Sigma-T1426) (bovine, UniProt P00760 24-246)
Sequence (P00760 24-246): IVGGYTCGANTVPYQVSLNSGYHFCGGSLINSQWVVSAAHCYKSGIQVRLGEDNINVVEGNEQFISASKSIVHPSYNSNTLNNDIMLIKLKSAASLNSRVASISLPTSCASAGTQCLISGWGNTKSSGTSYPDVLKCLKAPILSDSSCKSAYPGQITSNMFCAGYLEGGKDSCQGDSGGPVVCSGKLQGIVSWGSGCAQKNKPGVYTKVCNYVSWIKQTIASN
Experiment: fluorometric residual activity, Z-Gly-Pro-Arg-AMC, tight-binding fit
Where no end group is shown, it is not given here.
In this section, each of the binders is paired with its reported Ki.

BINDER	UNIT	Ki
GSGEVTCEPGTTFKDKCNTCRCGSDGKSAVCTKLWCNQ (designed binder, Comparator from WO 2012/007777) [SGMI-2 (SGCI-based MASP inhibitor 2)]	pM	100000
protein according to SEQ ID NO: 11 (TFPI-D2 variant with the inhibitor loop FCRAVKR) (designed binder, ends and bridges not checked; cysteine pairing not given here, Made in E. coli as a His6-S100A4 fusion and freed by TEV protease) KPDFCFLEEDPGFCRAVKRRYFYNNQTKQCERFKYGGCLGNMNNFETLEECKNICEDG	pM	94
protein according to SEQ ID NO: 14 (TFPI-D2 variant with the inhibitor loop PCRAVKR) (designed binder, ends and bridges not checked; cysteine pairing not given here, Made as m1) KPDFCFLEEDPGPCRAVKRRYFYNNQTKQCERFKYGGCLGNMNNFETLEECKNICEDG	pM	4
protein according to SEQ ID NO: 17 (TFPI-D2 variant with the inhibitor loop VCRAVKR) (designed binder, ends and bridges not checked; cysteine pairing not given here, Made as m1) KPDFCFLEEDPGVCRAVKRRYFYNNQTKQCERFKYGGCLGNMNNFETLEECKNICEDG	pM	17
